Target: T1, recombinant DLL3 ectodomain (rhDLL3-Fc) (human, UniProt Q9NYJ7 27-492, biotinylated (NHS-LC-LC-biotin) in the BLI and SPR assays)
T1 construct: also called rDLL3-Fc; recombinant human DLL3 (rDLL3); not shown: Fc part
T1 sequence: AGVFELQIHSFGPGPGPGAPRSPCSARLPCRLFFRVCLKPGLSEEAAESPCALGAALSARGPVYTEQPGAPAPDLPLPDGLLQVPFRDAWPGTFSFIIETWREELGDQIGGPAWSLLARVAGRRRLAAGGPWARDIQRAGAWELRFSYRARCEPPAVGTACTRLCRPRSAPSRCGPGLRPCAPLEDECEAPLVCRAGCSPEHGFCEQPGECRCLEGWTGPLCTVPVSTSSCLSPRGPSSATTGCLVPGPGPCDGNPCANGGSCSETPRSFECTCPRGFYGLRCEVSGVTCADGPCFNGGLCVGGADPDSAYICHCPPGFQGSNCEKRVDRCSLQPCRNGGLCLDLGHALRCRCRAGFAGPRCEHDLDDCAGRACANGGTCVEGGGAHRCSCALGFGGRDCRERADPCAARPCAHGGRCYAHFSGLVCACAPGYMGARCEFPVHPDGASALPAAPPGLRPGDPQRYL
Assay: phage ELISA on rDLL3-Fc
Ends that are not written are not given here.
measured endpoint: binding result

INSERT INTO measurements (binder, measured) VALUES
  ('AETVEFDGCKGDWYEWTCWW (not shown: M13 pIII coat protein) [SEQ ID NO 53]', 'binds'),
  ('AETVEFETCWYLYGREWCVG (not fully specified (bridges); cysteine pairing not given here, not shown: M13 pIII coat protein) [SEQ ID NO 62]', 'binds'),
  ('AETVEFYGCYGDRNDYTCTW (not shown: M13 pIII coat protein) [SEQ ID NO 42]', 'binds');
